- targetSystem: T1, human CD20 (human, UniProt P11836 1-297)
- T1 construct: The forward primer starts at codon 2; also called hCD20; CHO-K1-hCD20
- T1 sequence: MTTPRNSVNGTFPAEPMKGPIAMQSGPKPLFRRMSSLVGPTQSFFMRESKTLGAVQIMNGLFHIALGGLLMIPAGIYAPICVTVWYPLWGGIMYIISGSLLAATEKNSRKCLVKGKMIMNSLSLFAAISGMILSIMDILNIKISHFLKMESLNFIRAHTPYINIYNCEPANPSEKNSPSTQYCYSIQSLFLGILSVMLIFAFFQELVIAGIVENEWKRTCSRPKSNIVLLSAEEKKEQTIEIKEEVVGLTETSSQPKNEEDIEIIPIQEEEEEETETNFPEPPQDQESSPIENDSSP
- experimentalDetails: FACS, 5 ug/ml VHH on CHO-K1 cells stably expressing human CD20, FITC anti-his detection

| binder | binding result |
| --- | --- |
| 2HCD25 (VHH, Whole entry = VHH-AAA-HA-His6 (pMECS construct); also called hCD20Nb) VHH: QVQLQESGGGLAQAGGSLRLSCAASGRTFSMGWFRQAPGKEREFVAAITYSGGSPYYASSVRGRFTISRDNAKNTVYLQMNSLKPEDTAVYYCAANPTYGSDWNAENWGQGTQVTVSS | binds |
| 2HCD78 (VHH, Whole entry = VHH-AAA-HA-His6 (pMECS construct)) VHH: QVQLQESGGGLVQPGGSLRLSCAASGRTFSMGWFRQAPGKEREFVAAITYSGGSPYYASSVRGRFTISRDNAKNTVYLQMNSLKPEDTAVYYCAANPTYGSDWNAENWGQGTQVTVSS | binds |
| 2HCD73 (VHH, Whole entry = VHH-AAA-HA-His6 (pMECS construct)) VHH: QVQLQESGGGLVQAGGSLRLSCAASGRTFSRQSMGWFRQAPGEEREFVAVITWSGGSPYYADSVRGRFTISRDNAKNTVYLQMNSLKPEDTAVYYCAAPVSYGSQWLADYWGQGTQVTVSS | binds |
